Reference source for all entries: patent US9034901B2

# protocol.summary: Stability of pitavastatin calcium crystalline form at 40° C./75% RH and 25° C./60% RH (water by KF, related substances)
# Format: physicochemical
# details: 1 month, 40° C. ± 2° C., RH 75% ± 5%
property: Related Substances: Diastereomer (%)

- cpd.smiles: "O=C(O)C[C@H](O)C[C@H](O)/C=C/c1c(C2CC2)nc2ccccc2c1-c1ccc(F)cc1"
  property: "Related Substances: Diastereomer"
  result.value: 0.11

====

# protocol.summary: Stability of pitavastatin calcium crystalline form at 40° C./75% RH and 25° C./60% RH (water by KF, related substances)
# Assay type: physicochemical
# details: 2 month, 40° C. ± 2° C., RH 75% ± 5%
# Description: In general, the stability of pitavastatin calcium crystalline form having water content 5% wt/wt at 40° C./75% RH and 25° C./60% RH is shown in Table-1.
property: Related Substances: Diastereomer (%)

- cpd.smiles: "O=C(O)C[C@H](O)C[C@H](O)/C=C/c1c(C2CC2)nc2ccccc2c1-c1ccc(F)cc1"
  property: "Related Substances: Diastereomer"
  result.value: 0.11

====

# protocol.summary: Stability of pitavastatin calcium crystalline form at 40° C./75% RH and 25° C./60% RH (water by KF, related substances)
# Type: physicochemical
# details: 2 month, 40° C. ± 2° C., RH 75% ± 5%
property: Related Substances: 5-oxo (%)

- cpd.smiles: "O=C(O)C[C@H](O)C[C@H](O)/C=C/c1c(C2CC2)nc2ccccc2c1-c1ccc(F)cc1"
  property: "Related Substances: 5-oxo"
  unit.string: "%"
  result.value: 0.15

====

# protocol.summary: Stability of pitavastatin calcium crystalline form at 40° C./75% RH and 25° C./60% RH (water by KF, related substances)
# Type: physicochemical
# details: Initial
# Procedure: In general, the stability of pitavastatin calcium crystalline form having water content 5% wt/wt at 40° C./75% RH and 25° C./60% RH is shown in Table-1.
property: Related Substances: Desflouro (%)

- cpd.smiles: "O=C(O)C[C@H](O)C[C@H](O)/C=C/c1c(C2CC2)nc2ccccc2c1-c1ccc(F)cc1"
  property: "Related Substances: Desflouro"
  result.value: 0.05

====

# protocol.summary: Stability of pitavastatin calcium crystalline form at 40° C./75% RH and 25° C./60% RH (water by KF, related substances)
# Format: physicochemical
# details: 3 month, 25° C. ± 2° C., RH 60% ± 5%
property: Related Substances: Total Impurities (%)

- cpd.smiles: "O=C(O)C[C@H](O)C[C@H](O)/C=C/c1c(C2CC2)nc2ccccc2c1-c1ccc(F)cc1"
  result.value: 0.36

====

# protocol.summary: Stability of pitavastatin calcium crystalline form at 40° C./75% RH and 25° C./60% RH (water by KF, related substances)
# Format: physicochemical
# details: 2 month, 40° C. ± 2° C., RH 75% ± 5%
property: Related Substances: Desflouro (%)

- cpd.smiles: "O=C(O)C[C@H](O)C[C@H](O)/C=C/c1c(C2CC2)nc2ccccc2c1-c1ccc(F)cc1"
  result.value: 0.05
